Answer each item with its documented pIC50.
target: beta-catenin (human); assay: fluorescence polarization
Sequence (B6V8E6 146-665 limits assumed): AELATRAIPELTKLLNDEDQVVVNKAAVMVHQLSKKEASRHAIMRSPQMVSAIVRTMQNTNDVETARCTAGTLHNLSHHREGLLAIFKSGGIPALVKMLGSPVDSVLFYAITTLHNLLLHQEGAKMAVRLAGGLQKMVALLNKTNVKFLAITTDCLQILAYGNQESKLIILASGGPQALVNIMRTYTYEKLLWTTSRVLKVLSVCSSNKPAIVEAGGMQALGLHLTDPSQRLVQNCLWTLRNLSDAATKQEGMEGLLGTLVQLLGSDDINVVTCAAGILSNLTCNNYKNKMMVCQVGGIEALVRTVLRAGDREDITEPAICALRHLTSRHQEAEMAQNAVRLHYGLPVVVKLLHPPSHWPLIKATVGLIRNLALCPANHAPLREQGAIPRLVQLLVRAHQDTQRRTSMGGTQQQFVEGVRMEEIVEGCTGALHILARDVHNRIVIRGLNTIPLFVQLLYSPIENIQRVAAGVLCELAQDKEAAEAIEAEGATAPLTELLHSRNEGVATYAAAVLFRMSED
pIC50: −log10 of the molar value. *1 amine or outer side, *2 acyl side, *3 side chain or, on linkers, in order; H or OH if unused. Bridges are numbered along the chain shown (N, C = ends). Primed or numbered codes have the meaning given here. [ ]: non-standard residue; d: D form. PyrS2(5) = (S)-3-amino-1-((pent-4-en-1-yloxy)carbonyl)pyrrolidine-3-carboxylic acid, C=CCCCOC(=O)N1CC[C@@](N[*:1])(C(=O)[*:2])C1; B5(5) = 2-amino-2-(pent-4-en-1-yl)hept-6-enoic acid (two olefin arms), C=CCCCC(CCCC=C)(N[*:1])C(=O)[*:2]; Phe(3-COOH) = N[C@@H](Cc1cccc(C(=O)O)c1)C(=O)O; Bta = N[C@@H](Cc1csc2ccccc12)C(=O)O; αAllylPro = C=CC[C@@]1(C(=O)O)CCCN1; tBuAla = CC(C)(C)C[C@H](N)C(=O)O; 3Thi = N[C@@H](Cc1ccsc1)C(=O)O; Orn = NCCC[C@H](N)C(=O)O; AsnR = not defined here; GlnR = not defined here

Field request: pIC50 | item: Ac-[αAllylPro]D[tBuAla][B5(5)]D[Phe(3-COOH)]AAF[Orn][PyrS2(5)][3Thi][Bta][AsnR]-NH2 (bridge 10-14; not fully specified (bridges); printed as Ac-PL3-Asp-Npg-B5-Asp-3COOHF-Ala-Ala-Phe-Orn*3-PyrS2-3Thi-BztA-AsnR*3-NH2; reading uncertain) [I-39]
> 7.30

What measured pIC50 goes with Ac-[αAllylPro]D[tBuAla][B5(5)]D[Phe(3-COOH)]AAF[Orn][PyrS2(5)][3Thi][Bta][GlnR]-NH2 (bridge 10-14; not fully specified (bridges); printed as Ac-PL3-Asp-Npg-B5-Asp-3COOHF-Ala-Ala-Phe-Orn*3-PyrS2-3Thi-BztA-GlnR*3-NH2; reading uncertain) [I-37] ?
> 7.30
